System: Sam68 (KHDRBS1)
procedureDetails: Sam68 small-molecule binders, primary screen, biochemical, small-molecule microarray, 635 nm fluorescence (AID 1125);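 also: score merges 667 nm channel intensity with signal to noise over triplicate slides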
testContext: small-molecule microarray binding, higher = more signal
Returns yes if the recorded composite z-score is greater than or equal to -0.06, and no otherwise.

In: Identify whether the reported composite z-score of the following compound is -0.06 or greater: C=CCC(OC(C)=O)[C@@H]1[C@@H](N(Cc2ccc(-c3cccc(C(F)(F)F)c3)o2)C(=O)c2ccc(-c3ccccc3)cc2)c2cc(OCCCO)ccc2N1C(=O)c1ccc(-c2ccccc2)cc1 (stereo partly specified)
Out: no

In: Identify whether the reported composite z-score of the following compound is -0.06 or greater: `C=C[C@H](COC(C)=O)N(C(=O)OC(C)(C)C)S(=O)(=O)c1ccc(Br)cc1`
Out: yes

In: Identify whether the reported composite z-score of the following compound is -0.06 or greater: `O=C1O[C@H](c2ccccc2)[C@H](c2ccccc2)N2[C@H]1[C@@H](C(=O)Nc1nc3ccccc3s1)[C@]1(C(=O)Nc3ccc(C#CCCO)cc31)[C@H]2c1ccc(OCCO)cc1`
Out: yes

In: Identify whether the reported composite z-score of the following compound is -0.06 or greater: `CN(C)CCCNC(=O)[C@@]1(C)c2ccccc2C(=O)N(Cc2cc(F)cc(C(F)(F)F)c2)[C@H]1c1ccc(CO)cc1`
Out: yes

In: Identify whether the reported composite z-score of the following compound is -0.06 or greater: `COc1cc2c(cc1OC)CN(C(=O)[C@H]1[C@@H]3C(=O)O[C@@H](c4ccccc4)[C@@H](c4ccccc4)N3[C@@H](c3ccc(O)cc3)[C@]13C(=O)Nc1ccc(C#CCNC(N)=O)cc13)CC2`
Out: yes

In: Identify whether the reported composite z-score of the following compound is -0.06 or greater: O=C1OCC=C[C@H]2OC34C=CCN(c5ccc6ccccc6c5)C(=O)[C@H]3N(CCCCCCO)C(=O)[C@@H]4[C@@H]12 (stereo partly specified)
Out: no

---

systemUnderTest: Homeobox protein Hox-A13 (Mus musculus)
procedureDetails: inhibitors of HoxA13-DNA binding, primary screen, biochemical, fluorescence polarization, labeled oligonucleotide (AID 1185)
testContext: 15 min, higher = more signal, called active from +8 up or from −8 down
// reported z-score for each item listed
I only need the number, thanks.

// solved cases for z-score follow
{"molecule": "O=C(NCC(F)(F)F)[C@@H]1c2ccccc2C(=O)N(C2CCCCC2)[C@H]1c1ccc(CO)cc1", "quantityMeasured": "z-score", "value": -3.32}
{"molecule": "O=C1O[C@@H](c2ccccc2)[C@@H](c2ccccc2)N2[C@@H](c3ccc(OCCO)cc3)[C@]3(C(=O)Nc4ccccc43)[C@@H](C(=O)NC[C@H](O)c3ccccc3)[C@H]12", "quantityMeasured": "z-score", "value": -5.41}

In: Item `[N-]=[N+]=NCc1ccccc1C[C@]1(C(=O)O)N=C(c2ccc(OCCCO)cc2)O[C@H]1c1ccccc1N=[N+]=[N-]` : provide z-score
Out: -3.84

In: Item `CCOC(=O)[C@H]1C/C=C/C[C@H](C(=O)OCC)C(=O)O[C@H]2[C@@H](OC)O[C@H](CO)[C@@H](OC(=O)Nc3cccc(F)c3)[C@@H]2OC1=O` : provide z-score
Out: -2.16

In: Item `CCCC[C@@H]1C[C@H]1[C@@H](NC(=O)c1ccco1)c1ccc(Cl)cc1` : provide z-score
Out: -3.18

---

// reported z-score for each item listed
procedureDetails: RPMI8226 myeloma cell viability, profiling panel, resazurin fluorescence, basal, 24 h, PK04 Diversity Set (AID 1180);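 also: RPMI8826 multiple myeloma cell line at 5000 cells per well; test concentration not given here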
testContext: higher = more signal
I only need the number, thanks.

// solved cases for z-score follow
{"molecule": "COC(=O)[C@@]1(Cc2ccc(F)cc2)[C@H]2c3cc(C(=O)N(C)C)n(CC4CC4)c3C[C@H]2CN1C(=O)c1ccccc1", "value": -2.09}
{"molecule": "CCOC(=O)C[C@H]1[C@H](OC(=O)Cc2ccc3c(c2)OCO3)[C@@H](NC(=O)c2ccc3ccccc3c2)c2cc(OCCCO)ccc2N1C(=O)c1ccccc1", "value": -0.52}
{"molecule": "[N-]=[N+]=NCc1ccccc1[C@@H]1OC(c2ccc(OCCCO)cc2)=N[C@]1(CCS(=O)(=O)c1ccccc1)C(=O)NCc1ccccc1", "value": 0.144}
{"molecule": "COc1ccc([Si](C)(C)[C@@H]2[C@@H](CC(=O)N3Cc4ccccc4C[C@H]3CO)O[C@]3(C(=O)N(C)c4c(Br)cc(C)cc43)[C@H]2C)cc1", "value": -5.76}
{"molecule": "CC[C@@H]1C=C(C(=O)O)[C@H](c2ccco2)N1S(=O)(=O)c1ccc(C)cc1", "value": -0.88}

In: Item CC(C)C[C@H]1NC(=O)[C@@]23C(=O)N[C@@H](Cc4ccccc4)C2[C@H](C)[C@@]2(C)O[C@H]2C3/C=C/C/C=C\CNC(=O)[C@H](Cc2ccccc2)NC1=O (some centres not stated) : provide z-score
Out: 0.628

In: Item CN1C(=O)C2C=CC(C(O)C3CCCCC3)N(Nc3ccc([N+](=O)[O-])cc3[N+](=O)[O-])C2C1=O (configuration not stated) : provide z-score
Out: -0.373

---

procedureDetails: MM1S myeloma cell viability, profiling panel, resazurin fluorescence, basal, 24 h, PK04 Diversity Set (AID 1174);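 also: MM1S multiple myeloma cell line; test concentration not given here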
testContext: higher = more signal, called active from +8 up or from −8 down
quantityMeasured: z-score
I only need the number, thanks.

// solved cases for z-score follow
{"smilesData": "COCCn1c(C(=O)N2CCCC2)cc2c1C[C@H]1CN(C(=O)c3ccccc3)[C@@](Cc3ccc(F)cc3)(C(=O)OC)[C@@H]21", "z-score": -0.829}
{"smilesData": "COc1ccc([Si](C)(C)[C@H]2[C@H](CCn3cc([C@H](O)c4ccccc4)nn3)O[C@@]3(C(=O)N(Cc4cccc(N5CCOC5=O)c4)c4ccccc43)[C@@H]2C)cc1", "z-score": -1.59}
{"smilesData": "COc1ccc(CCNC(=O)[C@@]2(Sc3ccc(C)cc3)CC(=O)N(C3CCCCC3)[C@@H]2c2ccc(CO)cc2I)cc1", "z-score": 0.175}
{"smilesData": "COCCOC(=O)N1C(=O)[C@@]2(c3cc(C#CC4=CCCCC4)ccc31)[C@H](C(=O)Nc1nc3ccccc3s1)[C@H]1C(=O)O[C@H](c3ccccc3)[C@H](c3ccccc3)N1[C@@H]2c1ccc(OCCO)cc1", "z-score": 0.295}
{"smilesData": "C=CCOC(=O)[C@H]1[C@@H]2C(=O)O[C@@H](c3ccccc3)[C@@H](c3ccccc3)N2[C@@H](c2ccc(OCCOC(=O)[C@@H]3C[C@@H]4C(=O)N[C@@H](CCCC[N+](C)(C)C)C(=O)N4[C@@H]3c3ccc(O)cc3)cc2)[C@]12C(=O)Nc1ccccc12", "z-score": 0.844}

Moving on to another compound below.
In: Item `COc1ccc(CCN2C(=O)[C@@]3(c4ccc([N+](=O)[O-])cc4)CC(=O)N(C4CCCCC4)[C@@H]3c3ccc(CO)cc32)cc1` : provide z-score
Out: -0.672

---

procedureDetails: small-molecule microarray binders of probe aEGFR, primary screen, biochemical, biotinylated probe, 635/667 nm fluorescence (AID 1097);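 also: probe is a biotinylated anti-EGFR antibody binding compounds printed on slides; score combines fluorescence near 667 nm and signal to noise of each spot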
testContext: higher = more signal
Returns Met if the recorded composite z-score is greater than or equal to -0.1, and Not met otherwise.

{"molecule": "COc1ccc([C@H]2C[C@H]3C(Br)=C[C@@H]2C(=O)[C@]32CO2)cc1", "classification": "Not met"}
{"molecule": "C=CC[C@@]1(C(=O)NCc2ccccc2)N=C(c2ccc(OCCCO)cc2)O[C@@H]1c1ccccc1N=[N+]=[N-]", "classification": "Met"}
{"molecule": "COc1ccc(CCN2C(=O)[C@@]3(Cc4ccccc42)c2ccccc2C(=O)N(Cc2ccccc2C(F)(F)F)[C@H]3c2ccc(CO)cc2)cc1", "classification": "Not met"}
{"molecule": "C#CCN(CC1=CCCCC1)[C@H](c1ccccc1Br)[C@@H](O)Cc1ccccc1", "classification": "Not met"}
{"molecule": "CN1C(=O)C2C=CC(C(O)C3=C[C@H]4C[C@@H](C3)C4(C)C)N(Nc3ccccc3)C2C1=O (some centres not stated)", "classification": "Met"}

# input for lookup
In: Identify whether the reported composite z-score of the following molecule is -0.1 or greater: `COC(=O)[C@@]1(Cc2ccccc2)[C@H]2c3cc(C(=O)N4CCCC4)n(Cc4cccc5ccccc45)c3C[C@H]2CN1C(=O)c1ccccc1`
Out: Met

---

systemUnderTest: Torsin-1A (Homo sapiens) (UniProt O14656)
Sequence (O14656 whole entry, looked up): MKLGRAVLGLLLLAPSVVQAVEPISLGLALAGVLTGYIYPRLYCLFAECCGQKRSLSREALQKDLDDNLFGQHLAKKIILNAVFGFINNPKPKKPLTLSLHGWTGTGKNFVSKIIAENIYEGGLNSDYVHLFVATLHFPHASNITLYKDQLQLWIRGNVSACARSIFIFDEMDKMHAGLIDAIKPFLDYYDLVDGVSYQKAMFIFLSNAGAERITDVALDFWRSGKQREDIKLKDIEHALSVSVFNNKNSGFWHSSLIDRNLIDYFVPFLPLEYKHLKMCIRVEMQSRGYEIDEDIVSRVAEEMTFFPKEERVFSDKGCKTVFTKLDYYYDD
procedureDetails: torsin A binders from cell lysate, primary screen, small-molecule microarray, wild-type, 635/667 nm (AID 1149)
testContext: COS7 hTOR1A-WT lysate, 635 nm fluorescence, higher = more signal
Returns Y if the recorded composite z-score is greater than or equal to 0.1, and N otherwise.

Example entries and their recorded answers appear below.
{"molecule": "O=C1OCCC/C=C\\[C@H]2OC34C=CCN(Cc5ccccc5)C(=O)[C@H]3N(CCCCCCO)C(=O)[C@@H]4C12 (some centres not stated)", "classification": "N"}
{"molecule": "COCCOC(=O)N1C(=O)[C@@]2(c3cc(C#Cc4ccc(OC)cc4)ccc31)[C@H](c1ccc(O)cc1)N1[C@H](c3ccccc3)[C@H](c3ccccc3)OC(=O)[C@H]1[C@@H]2C(=O)NC[C@H](O)c1ccccc1", "classification": "Y"}
{"molecule": "OC([C@@H]1CC(c2ccccc2)=NO1)[C@H]1CC(c2ccccc2)=NO1 (some centres not stated)", "classification": "N"}
{"molecule": "C=CCNC(=O)[C@H]1[C@@H]2C(=O)O[C@@H](c3ccccc3)[C@@H](c3ccccc3)N2[C@@H](c2ccccc2OCCO)[C@]12C(=O)Nc1ccc(C#CC3=CCCCC3)cc12", "classification": "Y"}
{"molecule": "CC(=O)n1cc(C(O)C2C=CC3C(=O)N(C)C(=O)C3N2Nc2ccccc2)c2ccccc21 (configuration not stated)", "classification": "Y"}
{"molecule": "COC(=O)[C@@]1(Cc2ccccc2)[C@H]2c3cc(C(=O)N4CCCC4)n(Cc4cccc5ccccc45)c3C[C@H]2CN1C(=O)c1ccccc1", "classification": "N"}

# input for lookup
In: Identify whether the reported composite z-score of the following molecule is 0.1 or greater: `COc1ccc(C(=O)Nc2ccc(CN3C(=O)[C@@]4(O[C@@H](CC(=O)N5CCC[C@H]5CO)[C@H]([Si](C)(C)c5ccc(OC)cc5)[C@H]4C)c4ccccc43)cc2)cc1`
Out: Y
